// data source = PubChem BioAssay

Assay: COS7 lysate on small-molecule microarray, probe aHis, 635 nm (AID 1123);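 further: z-score combines 667nm fluorescence intensity with signal-to-noise per printed compound spot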
Conditions: COS7 cell lysate, fluorescence, higher = more signal
Response field class: string, computed from recorded composite z-score by ranges low: < 0.1; mid: ≥ 0.1 and < 0.8; high: ≥ 0.8

Before answering, review these 2 worked examples.
COc1ccc(COC(=O)NN=C2C[C@@H](O)[C@@H](O)[C@@H]3[C@@H]4C(=O)N([C@@H](C)c5ccccc5)C(=O)[C@@H]4CC[C@H]23)cc1 : mid
COCCNC(=O)OCC1CCCC2(CC(OC(=O)NCc3cccc4ccccc34)CC(CCC(=O)N[C@@H](C)C(=O)OC)O2)O1 (some centres undefined) : high

Now turn to the next compound.
Pick a category. Item: CCc1cc2c(nc1CC)CCN(CCC(C)=NOC(C)CN1CCCCc3nc(C)c(C)cc31)C2 (centres undefined)
high
